Target: Arachidonate 5-lipoxygenase-activating protein (Homo sapiens, UniProt P20292)
Sequence (P20292 whole entry): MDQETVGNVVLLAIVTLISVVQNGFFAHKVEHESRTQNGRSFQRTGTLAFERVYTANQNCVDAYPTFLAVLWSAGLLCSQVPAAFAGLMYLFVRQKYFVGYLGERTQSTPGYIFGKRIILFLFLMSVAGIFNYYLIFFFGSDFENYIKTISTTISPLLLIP
Assay: Inhibition of FLAP in human peripheral leukocytes assessed as inhibition of calcium ionophore A23187-induced LTB4 production after 10 mins by ELISA
Assay type: cell-based
Readout type: IC50

[
  {
    "Compound": "COc1cnc(-c2ccc(Cn3c(CC(C)(C)C(=O)O)c(SC(C)(C)C)c4cc(OCc5ccc(C)cn5)ccc43)cc2)nc1",
    "Readout type": "IC50",
    "Reported measurement": "0.6 nM"
  },
  {
    "Compound": "Cc1ccc(COc2ccc3c(c2)c(SC(C)(C)C)c(CC(C)(C)C(=O)O)n3Cc2ccc(-c3cccnc3)cc2)nc1",
    "Readout type": "IC50",
    "Reported measurement": "0.5 nM"
  },
  {
    "Compound": "COc1ccc(-c2ccc(Cn3c(CC(C)(C)C(=O)O)c(SC(C)(C)C)c4cc(OCc5ccc6cc(F)ccc6n5)ccc43)cc2)cn1",
    "Readout type": "IC50",
    "Reported measurement": "0.7 nM"
  },
  {
    "Compound": "CCOc1ccc(-c2ccc(Cn3c(CC(C)(C)C(=O)O)c(SC(C)(C)C)c4cc(OCc5ccc(C)c[n+]5[O-])ccc43)cc2)cn1",
    "Readout type": "IC50",
    "Reported measurement": "4.6 nM"
  },
  {
    "Compound": "COc1ccc(-c2ccc(Cn3c(CC(C)(C)C(=O)O)c(SC(C)(C)C)c4cc(OCc5ncccc5C)ccc43)cc2)cn1",
    "Readout type": "IC50",
    "Reported measurement": "1.1 nM"
  },
  {
    "Compound": "Cc1ccc(COc2ccc3c(c2)c(SC(C)(C)C)c(CC(C)(C)C(=O)O)n3Cc2ccc(-c3ccccn3)cc2)nc1",
    "Readout type": "IC50",
    "Reported measurement": "0.6 nM"
  },
  {
    "Compound": "CCOc1ccc(-c2ccc(Cn3c(CC(C)(C)C(=O)O)c(C(=O)Cc4ccccc4)c4cc(OCc5ccc(C)cn5)ccc43)cc2)cn1",
    "Readout type": "IC50",
    "Reported measurement": "64 nM"
  },
  {
    "Compound": "COc1ccc(-c2ccc(Cn3c(CC(C)(C)C(=O)O)c(SC(C)(C)C)c4cc(OCc5ccc(C)cn5)ccc43)cc2)cn1",
    "Readout type": "IC50",
    "Reported measurement": "0.5 nM"
  },
  {
    "Compound": "COc1ccc(-c2ccc(Cn3c(CC(C)(C)C(=O)O)c(SC(C)(C)C)c4cc(OCc5cc(C)n(C)n5)ccc43)cc2)cn1",
    "Readout type": "IC50",
    "Reported measurement": "26.8 nM"
  },
  {
    "Compound": "COc1ccc(-c2ccc(Cn3c(CC(C)(C)C(=O)O)c(SC(C)(C)C)c4cc(OCc5ccccn5)ccc43)cc2)cn1",
    "Readout type": "IC50",
    "Reported measurement": "0.5 nM"
  },
  {
    "Compound": "COc1ccc(COc2ccc3c(c2)c(SC(C)(C)C)c(CC(C)(C)C(=O)O)n3Cc2ccc(-c3ccc(OC)nc3)cc2)nc1",
    "Readout type": "IC50",
    "Reported measurement": "0.7 nM"
  },
  {
    "Compound": "CCOc1ccc(-c2ccc(Cn3c(CC(C)(C)C(=O)O)c([S+]([O-])C(C)(C)C)c4cc(OCc5ccc(C)cn5)ccc43)cc2)cn1 (racemic)",
    "Readout type": "IC50",
    "Reported measurement": "253 nM"
  },
  {
    "Compound": "CCOc1nc(-c2ccc(Cn3c(CC(C)(C)C(=O)O)c(SC(C)(C)C)c4cc(OCc5ccc(C)cn5)ccc43)cc2)cs1",
    "Readout type": "IC50",
    "Reported measurement": "0.4 nM"
  },
  {
    "Compound": "CCc1ccc(COc2ccc3c(c2)c(SC(C)(C)C)c(CC(C)(C)C(=O)O)n3Cc2ccc(-c3ccc(OC)nc3)cc2)nc1",
    "Readout type": "IC50",
    "Reported measurement": "0.6 nM"
  },
  {
    "Compound": "CCOc1ccc(-c2ccc(Cn3c(CC(C)(C)C(=O)O)cc4cc(OCc5ccc(C)cn5)ccc43)cc2)cn1",
    "Readout type": "IC50",
    "Reported measurement": "22.6 nM"
  },
  {
    "Compound": "CCOc1ccc(-c2ccc(Cn3c(CC(C)(C)C(=O)O)c(SC(C)(C)C)c4cc(OCc5ccc(C)cn5)ccc43)cc2)cn1",
    "Readout type": "IC50",
    "Reported measurement": "0.7 nM"
  },
  {
    "Compound": "COc1ccc(-c2ccc(Cn3c(CC(C)(C)C(=O)O)c(SC(C)(C)C)c4cc(OCc5cc(C)ccn5)ccc43)cc2)cn1",
    "Readout type": "IC50",
    "Reported measurement": "1.8 nM"
  },
  {
    "Compound": "COc1ccc(-c2ccc(Cn3c(CC(C)(C)C(=O)O)c(SC(C)(C)C)c4cc(OCc5cn6ccccc6n5)ccc43)cc2)cn1",
    "Readout type": "IC50",
    "Reported measurement": "1.4 nM"
  },
  {
    "Compound": "COc1ccc(-c2ccc(Cn3c(CC(C)(C)C(=O)O)c(SC(C)(C)C)c4cc(OCc5cc(C)nn5C)ccc43)cc2)cn1",
    "Readout type": "IC50",
    "Reported measurement": "19.7 nM"
  },
  {
    "Compound": "COc1ccc(-c2ccc(Cn3c(CC(C)(C)C(=O)O)c(SC(C)(C)C)c4cc(OCc5ncc(C)cc5C)ccc43)cc2)cn1",
    "Readout type": "IC50",
    "Reported measurement": "1.2 nM"
  },
  {
    "Compound": "CC(C)(C)Sc1c(CC(C)(C)C(=O)O)n(Cc2ccc(Cl)cc2)c2ccc(OCc3ccc4ccccc4n3)cc12 [QUIFLAPON SODIUM]",
    "Readout type": "IC50",
    "Reported measurement": "0.5 nM"
  },
  {
    "Compound": "Cc1ccc(COc2ccc3c(c2)c(SC(C)(C)C)c(CC(C)(C)C(=O)O)n3Cc2ccc(-c3ccc(C(F)(F)F)nc3)cc2)nc1",
    "Readout type": "IC50",
    "Reported measurement": "0.4 nM"
  },
  {
    "Compound": "Cc1ccc(COc2ccc3c(c2)c(SC(C)(C)C)c(CC(C)(C)C(=O)O)n3Cc2ccc(-c3cncc(F)c3)cc2)nc1",
    "Readout type": "IC50",
    "Reported measurement": "0.6 nM"
  },
  {
    "Compound": "COc1cccc(-c2ccc(Cn3c(CC(C)(C)C(=O)O)c(SC(C)(C)C)c4cc(OCc5ccc(C)cn5)ccc43)cc2)n1",
    "Readout type": "IC50",
    "Reported measurement": "0.3 nM"
  },
  {
    "Compound": "COc1ccc(-c2ccc(Cn3c(CC(C)(C)C(=O)O)c(SC(C)(C)C)c4cc(OCc5ccc6ccc(F)cc6n5)ccc43)cc2)cn1",
    "Readout type": "IC50",
    "Reported measurement": "2.1 nM"
  },
  {
    "Compound": "COc1ccc(-c2ccc(Cn3c(CC(C)(C)C(=O)O)c(SC(C)(C)C)c4cc(OCc5cnc6ccccc6n5)ccc43)cc2)cn1",
    "Readout type": "IC50",
    "Reported measurement": "0.7 nM"
  },
  {
    "Compound": "COc1ccc(-c2ccc(Cn3c(CC(C)(C)C(=O)O)c(SC(C)(C)C)c4cc(OCc5cnc(C)cn5)ccc43)cc2)cn1",
    "Readout type": "IC50",
    "Reported measurement": "3.3 nM"
  },
  {
    "Compound": "Cc1ccc(COc2ccc3c(c2)c(SC(C)(C)C)c(CC(C)(C)C(=O)O)n3Cc2ccc(-c3ccc(C)cn3)cc2)nc1",
    "Readout type": "IC50",
    "Reported measurement": "0.5 nM"
  },
  {
    "Compound": "COc1ccc(-c2ccc(Cn3c(CC(C)(C)C(=O)O)c(SC(C)(C)C)c4cc(OCc5cc6ccccc6[nH]5)ccc43)cc2)cn1",
    "Readout type": "IC50",
    "Reported measurement": "11.1 nM"
  }
]
